biological target: AsfvPolX (ASFV DNA Polymerase X) (African swine fever virus BA71V, UniProt P42494); construct: gene Ba71V-97; experiment: biochemical; assay type: binding
Sequence (P42494 whole entry, looked up): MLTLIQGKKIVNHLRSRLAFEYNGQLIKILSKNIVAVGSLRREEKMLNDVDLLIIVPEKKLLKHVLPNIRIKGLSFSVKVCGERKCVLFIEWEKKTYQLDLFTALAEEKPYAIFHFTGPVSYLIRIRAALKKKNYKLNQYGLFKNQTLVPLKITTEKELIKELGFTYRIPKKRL
QUANTITY KIND: Kd (µM)
Give bare numbers, in µM.

INSERT INTO measurements (given_smiles, quantity_kind, recorded_measurement) VALUES
  ('Cc1cn([C@H]2C[C@H](O)[C@@H](COP(=O)(O)OP(=O)(O)OP(=O)(O)O)O2)c(=O)[nH]c1=O', 'Kd', 9.09);

Moving on to another compound below.
Quick one: Kd for Nc1ccn([C@H]2C[C@H](O)[C@@H](COP(=O)(O)OP(=O)(O)OP(=O)(O)O)O2)c(=O)n1 ?
6.85
